Reference source: paper PMC9482650

# pKd annotations
Target: GRID2IP_2, A4D2P6
Sequence (A4D2P6 272-370): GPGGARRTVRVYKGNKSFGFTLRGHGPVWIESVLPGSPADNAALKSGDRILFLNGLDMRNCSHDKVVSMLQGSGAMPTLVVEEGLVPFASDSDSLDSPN
Test: holdup assay
Design: key: below the threshold = too weak to quantify, mostly under pKd 3.1 to 4
Conditions: plain residues with an end cap or a label only (N-terminal biotin on a linker: ttds)
Result Type: pKd

                          binder  measured
0   SVWLRKETRV [CYSLTR2, Q9NS75]      3.45
1     RSLEEEESQL [GRASP, Q7Z6J2]      4.33
2  SSRTRRETQL [HPV16-E6, P03126]      3.86
3     GQDSREETQL [KCNT2, Q6UVM3]      4.52
4    IYVPEAQTRL [DLGAP4, Q9Y2H0]      4.08
5     STLTIFETAL [ABCC4, O15439]      4.36
6  IDNDTESTAL [ARHGAP17, Q68EM7]      4.87
7    TVASEKESVM [SLC1A5, Q15758]       3.7
